Attribution: PubChem BioAssay AID1835

tgt: Voltage-gated inwardly rectifying potassium channel KCNH2 (Homo sapiens)
test method notes: hERG protection against dofetilide inhibition, confirmation, cell-based, thallium flux, duplicate retest, dofetilide IC70 (AID 1835)
recorded conditions: hERG cell line, FluxOR thallium flux, dofetilide-blocked; at 10 µM
About 750 (31%) of roughly 2,400 compounds were called active.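 The calls were made as follows: active = median signal gain over dofetilide-blocked control wells reaching their mean plus 3 SD, so readout 1 at least 0; inactive = the rest.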 Some of the results follow.
Give one outcome, nothing more. List: 1 for active, 0 for inactive

# molecule, qualitative label
records = [
    ("Cc1ccc(C(C)C)cc1OCC(=O)Nc1ccc(N2CCCCC2)cc1", 0),
    ("N=C1S/C(=C\\c2ccc(-c3cccc(Cl)c3)o2)C(=O)N1c1nccs1", 1),
    ("O=C(NC(=S)Nc1nc(-c2ccccc2)cs1)c1cncc(Br)c1", 1),
    ("CCN1C(=O)/C(=C\\c2ccc(-c3cccc(C(=O)OC)c3)o2)SC1=Nc1ccc(C(=O)O)cc1", 0),
    ("COc1ccc(/C=C2\\SC(=N)N(c3nccs3)C2=O)cc1OC", 1),
]

// outcome(item) with item = CCN(CC)S(=O)(=O)c1ccc2[nH]c(=O)cc(C(=O)Nc3cccc(C(C)=O)c3)c2c1 0

// outcome(item) with item = CCCCCN(C(=O)CCC(=O)OC(C)C(=O)c1ccccc1)c1c(N)n(CCCC)c(=O)[nH]c1=O (stereo not given) 0

// outcome(item) with item = CC(C)Oc1ccc(CNC(=O)C2CCN(C(=O)N3CCOc4ccccc43)CC2)cc1 0

// outcome(item) with item = O=c1c(O)c(-c2ccc3c(c2)OCO3)oc2ccccc12 1

// outcome(item) with item = C/C(=C/CCC(C)[C@H]1CC[C@@]2(C)C3=C(CC[C@]12C)[C@@]1(C)CCC(=O)C(C)(C)[C@@H]1CC3)C(=O)O (stereo not given in full) 1

// outcome(item) with item = COc1ccc(-c2csc(NC(=S)NC(=O)c3ccc4ccccc4c3)n2)cc1OC 0

* * *

Kindly supply the reported activity increase over dofetilide control, less the hit threshold values for the records listed here.
tgt: Voltage-gated inwardly rectifying potassium channel KCNH2 (Homo sapiens) (UniProt Q12809)
Sequence (Q12809 whole entry, looked up): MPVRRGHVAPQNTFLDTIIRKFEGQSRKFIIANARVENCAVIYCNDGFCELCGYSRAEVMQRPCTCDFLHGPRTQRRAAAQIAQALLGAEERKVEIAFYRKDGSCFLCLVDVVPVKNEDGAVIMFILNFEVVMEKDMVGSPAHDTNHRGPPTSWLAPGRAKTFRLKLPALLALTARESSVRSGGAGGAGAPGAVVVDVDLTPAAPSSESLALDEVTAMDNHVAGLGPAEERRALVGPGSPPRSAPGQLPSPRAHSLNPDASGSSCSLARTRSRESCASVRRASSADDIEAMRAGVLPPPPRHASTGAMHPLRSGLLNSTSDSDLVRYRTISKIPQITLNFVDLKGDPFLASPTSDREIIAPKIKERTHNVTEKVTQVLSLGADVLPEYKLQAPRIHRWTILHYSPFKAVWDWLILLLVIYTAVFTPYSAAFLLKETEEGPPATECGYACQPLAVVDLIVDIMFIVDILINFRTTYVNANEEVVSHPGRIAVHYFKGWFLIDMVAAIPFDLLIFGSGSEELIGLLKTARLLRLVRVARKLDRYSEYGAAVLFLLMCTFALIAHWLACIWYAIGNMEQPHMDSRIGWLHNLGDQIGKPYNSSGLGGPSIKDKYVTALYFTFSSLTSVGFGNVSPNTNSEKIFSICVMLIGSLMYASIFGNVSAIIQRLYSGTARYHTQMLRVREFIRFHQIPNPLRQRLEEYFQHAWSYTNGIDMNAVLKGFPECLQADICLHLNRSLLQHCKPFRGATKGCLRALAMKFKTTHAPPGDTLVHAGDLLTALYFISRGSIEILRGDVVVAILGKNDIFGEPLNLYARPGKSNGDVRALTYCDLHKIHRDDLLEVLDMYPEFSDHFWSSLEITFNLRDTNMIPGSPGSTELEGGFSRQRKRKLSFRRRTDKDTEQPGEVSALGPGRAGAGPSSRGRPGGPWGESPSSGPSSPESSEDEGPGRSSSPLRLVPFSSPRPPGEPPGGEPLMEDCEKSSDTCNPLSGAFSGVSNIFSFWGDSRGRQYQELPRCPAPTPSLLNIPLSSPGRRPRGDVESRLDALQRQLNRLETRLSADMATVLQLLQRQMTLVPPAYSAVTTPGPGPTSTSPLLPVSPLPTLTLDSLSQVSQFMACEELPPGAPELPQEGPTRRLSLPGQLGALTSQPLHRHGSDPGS
test method notes: hERG protection against dofetilide inhibition, confirmation, cell-based, thallium flux, duplicate retest, dofetilide IC70 (AID 1835)
recorded conditions: hERG cell line, FluxOR thallium flux, dofetilide-blocked; at 10 µM; hits give high values
Hit rate of the full screen: of about 2,400 compounds, about 750 (31%) were called active. This is one part of the list.
Answers are plain numbers, in %.

Consider the reported activity increase over dofetilide control, less the hit threshold for these molecules:
# molecule, quantitative readout
data = [
    ("Cc1cc(-c2cccc(Br)c2)c(C#N)c(N)n1", -15),
    ("CCOc1cc(-n2ncc(C#N)c2N)nc(SC)n1", -12),
]

Kindly give each listed record's activity increase over dofetilide control, less the hit threshold.
1. CC(=O)Nc1ccc(S(=O)(=O)N2CCC(NC(=O)c3ccccc3)CC2)cc1
2. CC(C)Oc1c(Cl)cc(CNC(C)(C)CO)cc1Cl
3. NC(=O)c1cccnc1Nc1cccc([N+](=O)[O-])c1
4. CC(=O)c1c(N2CCN(Cc3ccccc3)CC2)[nH]c(-c2ccccc2)nc1=S

-17
1
10
15

* * *

tgt: Voltage-gated inwardly rectifying potassium channel KCNH2 (Homo sapiens)
test method notes: hERG protection against dofetilide inhibition, confirmation, cell-based, thallium flux, duplicate retest, dofetilide IC70 (AID 1835)
recorded conditions: hERG cell line, FluxOR thallium flux, dofetilide-blocked; at 10 µM
Hit rate of the full screen: of about 2,400 compounds, about 750 (31%) were called active.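 How the source made its calls: active means median signal gain over dofetilide-blocked control wells reaching their mean plus 3 SD, so readout 1 at least 0; inactive means the rest.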 The list shows a part of the results.
Give one outcome, nothing more. List: active, inactive

# compound, qualitative label
measured = [
    ("COCCCN1C(=O)C(=O)/C(=C(/O)c2ccc(S(=O)(=O)N3CCOCC3)cc2)C1c1ccc(F)cc1 (stereo not drawn)", "inactive"),
]

// outcome(item) with item = O=C(COc1ccc2c3c(c(=O)oc2c1)CCC3)N[C@@H](Cc1ccccc1)C(=O)O active

// outcome(item) with item = O=[N+]([O-])c1cc(S(=O)(=O)/N=C(/c2ccccc2)N2CCOCC2)ccc1Cl inactive

// outcome(item) with item = O=C(NN1C(=O)C2C(c3ccccc3)C=CC(c3ccccc3)C2C1=O)c1cccc(Br)c1 (stereo not drawn) inactive

// outcome(item) with item = Cc1ccc(NC(=S)NC(=O)c2ccc(Br)o2)c(C)c1 inactive

// outcome(item) with item = O=C(O)CSc1nc2ccccc2nc1Cc1ccccc1F active

* * *

Kindly supply the reported activity increase over dofetilide control, less the hit threshold values for the records listed here.
tgt: Voltage-gated inwardly rectifying potassium channel KCNH2 (Homo sapiens)
test method notes: hERG protection against dofetilide inhibition, confirmation, cell-based, thallium flux, duplicate retest, dofetilide IC70 (AID 1835)
recorded conditions: hERG cell line, FluxOR thallium flux, dofetilide-blocked; at 10 µM; hits give high values
Among all 2,400 compounds or so, about 750 (31%) were called active. Some of the results follow.
One number for each entry, in %.

Consider the reported activity increase over dofetilide control, less the hit threshold for these compounds:
# compound, quantitative readout
measured = [
    ("C#CCN1C(=O)S/C(=C\\c2ccc(-c3ccc(C(=O)O)cc3C)o2)C1=O", 1),
    ("CCC(=O)c1cc2c(C)cc(=O)oc2c(C)c1O", -13),
    ("CCCCOc1ccc(-c2c(C#N)c(N)[nH]c(=S)c2C#N)cc1", 38),
    ("O=C(COc1ccc(Cl)cc1Cl)NC(=S)Nc1ccccc1C(=O)O", -6),
    ("COc1ccc(CCNS(=O)(=O)c2csc(C(N)=O)c2)cc1OC", -14),
]

Kindly give each listed record's activity increase over dofetilide control, less the hit threshold.
1. Cc1cc(C(=O)NNC(=O)c2cccs2)nn1C(C)(C)C
2. CSc1nc2c(c(=O)[nH]1)C(c1ccc(F)cc1)CC(=O)N2 (stereo not drawn)

[-1, 18]

Quickly give me recorded activity increase over dofetilide control, less the hit threshold for Cc1ccc(NC(=S)c2nc3ccccc3s2)cc1 5

* * *

Kindly supply the reported activity increase over dofetilide control, less the hit threshold values for the records listed here.
tgt: Voltage-gated inwardly rectifying potassium channel KCNH2 (Homo sapiens) (UniProt Q12809)
test method notes: hERG protection against dofetilide inhibition, confirmation, cell-based, thallium flux, duplicate retest, dofetilide IC70 (AID 1835)
recorded conditions: hERG cell line, FluxOR thallium flux, dofetilide-blocked; at 10 µM; hits give high values
The campaign covered roughly 2,400 compounds. About 750 (31%) were called active. Some of the results follow.
Numbers only, in %.

Kindly give each listed record's activity increase over dofetilide control, less the hit threshold.
1. COc1cccc(C(=O)CC(=O)C(=O)Nc2ccc(C)cc2Cl)c1
2. c1ccc(OCc2nn3c(Cn4cnc5ccccc54)nnc3s2)cc1
3. COc1cc(NC(=O)c2ccc3c(c2)OCO3)ccc1NC(=O)c1cccs1
4. O=C(Nc1ncc(Br)s1)C(Cc1ccccc1)n1cccc1 (stereo unspecified)
5. COc1ccccc1/C=C1\SC(=S)N(NS(=O)(=O)c2ccc(C)cc2)C1=O
6. Cc1cc(F)c(F)c(C(=O)N2CCOCC2)c1

1: 50; 2: -10; 3: -22; 4: 22; 5: -20; 6: -17

Kindly give each listed record's activity increase over dofetilide control, less the hit threshold.
1. CN(c1ccccc1)S(=O)(=O)c1ccc(Cl)c(C(=O)Nc2nn[nH]n2)c1
2. Cc1ccc(OCC(=O)Nn2cnc3ccccc32)cc1
3. CC(/C=C1\SC(=S)N(NS(=O)(=O)c2ccccc2)C1=O)=C\c1ccccc1
4. CCOc1ccc2nc(/N=C/c3nc(-c4ccc(Br)cc4)oc3O)sc2c1
5. COc1cc(OC)cc(C(=O)O/N=C(\N)c2cccc(C)c2)c1

-4
-11
15
11
-14

* * *

tgt: Voltage-gated inwardly rectifying potassium channel KCNH2 (Homo sapiens)
test method notes: hERG protection against dofetilide inhibition, confirmation, cell-based, thallium flux, duplicate retest, dofetilide IC70 (AID 1835)
recorded conditions: hERG cell line, FluxOR thallium flux, dofetilide-blocked; at 10 µM; hits give high values
The whole screen tested about 2,400 compounds, of which about 750 (31%) were called active. The list shows a part of the results.
Label NO if activity increase over dofetilide control, less the hit threshold falls below -10%; label YES in every other case.

Take a look at these entries with their results.
# compound, tgt, qualitative label
data = [
    ("O=c1c(-c2ccc(Cl)cc2)[n+]([O-])c2ccccc2n1O", "Voltage-gated inwardly rectifying potassium channel KCNH2 (Homo sapiens)", "YES"),
    ("COc1cc(C2NC(=O)NC(O)(C(F)(F)F)C2C(C)=O)cc(OC)c1OC (configuration not stated)", "Voltage-gated inwardly rectifying potassium channel KCNH2 (Homo sapiens)", "NO"),
    ("Cc1noc(C)c1COc1cccc(C(=O)NCc2cccc(Cl)c2)c1", "Voltage-gated inwardly rectifying potassium channel KCNH2 (Homo sapiens)", "NO"),
]

Threshold query (activity increase over dofetilide control, less the hit threshold >= -10%) on Cn1c(O)c(N=NC(=S)Nc2ccccc2F)c2cc(S(=O)(=O)N3CCOCC3)ccc21 NO

Threshold query (activity increase over dofetilide control, less the hit threshold >= -10%) on O=S(=O)(Nc1nc(-c2sccc2Cl)cs1)c1cc(Cl)ccc1Cl YES

Threshold query (activity increase over dofetilide control, less the hit threshold >= -10%) on O=C(CCC(=O)N1CCN(S(=O)(=O)c2ccccc2)CC1)c1cccs1 NO
